Kindly state normalized growth for each of the entries shown.
Experiment: chemical genetic growth profiling, strain panel (AID 1159580);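 further: tested at 20 µM; growth read once vehicle control cultures reached saturation at 30 °C; 1 = growth at the plate median or of vehicle wells; lower values mean less growth of the strain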
Settings: S. cerevisiae deletion strains, growth OD, locus YDL101C, strain DUN1, active compounds read low
The campaign covered roughly 5,500 compounds. About 2,000 (36%) were called active. Not shown: some 18% with an inconclusive outcome. The list shows a part of the results.
Answers are plain numbers.

Use these answered entries as a reference point.
compound="C[N+]1(C)CCCC(OC(=O)C(O)(c2ccccc2)c2ccccc2)C1 (stereo unspecified)" numeric_result=0.999
compound=O=C(O)c1ccccc1Sc1c(C(=O)O)cc([N+](=O)[O-])cc1[N+](=O)[O-] numeric_result=1.02
compound=FC(F)(F)c1cc(-c2ccco2)nc2cc(-c3ccco3)nn12 numeric_result=0.972

Field: normalized growth. Fill in for each record below.
1. O=[N+]([O-])c1cc(Cl)c(Sc2ccccc2)cc1Sc1ccccc1
2. C=C(C)C1Cc2c(ccc(C(=O)O)c2O)O1 (stereo unspecified)
3. O=C(Nc1ccc([N+](=O)[O-])cc1Cl)c1cc(Cl)ccc1O

1.01
1.02
0.983
